# testTarget: dopamine receptors in corpus striatum (Rattus norvegicus)
# Sequence (P61169 whole entry): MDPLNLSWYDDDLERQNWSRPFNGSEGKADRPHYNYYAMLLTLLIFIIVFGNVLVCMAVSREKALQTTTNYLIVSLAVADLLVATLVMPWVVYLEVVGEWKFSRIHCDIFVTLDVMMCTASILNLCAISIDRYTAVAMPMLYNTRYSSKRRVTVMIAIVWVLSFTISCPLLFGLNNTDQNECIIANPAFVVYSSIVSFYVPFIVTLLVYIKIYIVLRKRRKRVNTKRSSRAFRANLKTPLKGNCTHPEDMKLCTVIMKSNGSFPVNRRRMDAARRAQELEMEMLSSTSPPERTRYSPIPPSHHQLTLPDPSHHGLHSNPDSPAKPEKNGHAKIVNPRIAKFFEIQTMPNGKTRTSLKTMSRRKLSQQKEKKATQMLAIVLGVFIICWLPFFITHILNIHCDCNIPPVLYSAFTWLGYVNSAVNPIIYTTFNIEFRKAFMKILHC
assayReadout: pIC50
// pIC50: -log10(molar conc.)

Entry NC(=O)CCN1CCN(C2Cc3cc(Cl)ccc3Sc3cc(F)ccc32)CC1 (stereo not shown) [Compound A] — recorded pIC50 = 7.30

---

# measurementProtocol: in vivo
# measurementConditions: mouse, po
assayReadout: LD50
Note: a bare number is incomplete; add the unit.

Value of LD50 reported for the compound NC(CCN1CCN(C2Cc3cc(Cl)ccc3Sc3cc(F)ccc32)CC1)=NO (stereo not shown) is 320 mg/kg

---

# measurementProtocol: in vivo
# measurementConditions: mouse, po, LD50, male mice, 48 h, per base
assayReadout: LD50 at 48 h (mg/kg)
Value expressed in mg/kg; do not type the unit.

Recorded result, NC(=O)CCN1CCN(C2Cc3cc(Cl)ccc3Sc3cc(F)ccc32)CC1 (stereo not shown) , LD50 at 48 h: 336

---

# measurementProtocol: Acute toxicity in mice, intravenous administration
# measurementConditions: mouse, in vivo
assayReadout: LD50 (mg/kg)
Could you give me the number in mg/kg? Just the number is fine.

LD50 measured on Fc1ccc2c(c1)Sc1ccc(Cl)cc1CC2N1CCN(CCC2OCCCO2)CC1 (stereo not shown) [Compound C] = 77.6

---

# System: rats
# measurementProtocol: Cataleptic activity in rats
# measurementConditions: rats, 50 mg/kg, oral

| compound | cataleptic activity |
| --- | --- |
| Fc1ccc2c(c1)Sc1ccc(Cl)cc1CC2N1CCN(CCC2OCCO2)CC1 (stereo not shown) [Compound B] | no cataleptic effect |
| Fc1ccc2c(c1)Sc1ccc(Cl)cc1CC2N1CCN(CCC2OCCCO2)CC1 (stereo not shown) [Compound C] | no cataleptic effect |

---

# measurementProtocol: in vivo
# measurementConditions: mouse, po, LD50, mice, per base
assayReadout: LD50 (mg/kg)
Give your result in mg/kg as a bare value.

According to the records, this compound Fc1ccc2c(c1)Sc1ccc(Cl)cc1CC2N1CCN(CCC2OCCO2)CC1 (centres unmarked) displays LD50 of 350

---

# measurementProtocol: Acute toxicity in rats (oral)
# measurementConditions: rat, in vivo
assayReadout: LD50 (mg/kg)
Numeric only. Scale: mg/kg

Per the record, NC(=O)CCN1CCN(C2Cc3cc(Cl)ccc3Sc3cc(F)ccc32)CC1 (stereo not shown) [Compound A] has LD50 of 654
